Organism: Rattus norvegicus
assayRemarks: Open TG-GATES - Regimen: Daily Repeat
Assay type: toxicity, organism-based, Sprague-Dawley
Design: regimen Daily Repeat, gender Male, age 6 weeks
conditionsUsed: in vivo, po, 0 mg/kg, […], tissue Blood, route gavage, dose level Control, time 28 day
So I've got a bunch of molecules here, and I need their PT values.
Your answer is read as s, so omit the unit and give the number.

Output measured PT for this item: CC(C)N(CCC(C(N)=O)(c1ccccc1)c1ccccn1)C(C)C (stereo not given) [DISOPYRAMIDE] 15.7

Output measured PT for this item: CCCCc1oc2ccccc2c1C(=O)c1cc(I)c(OCCN(CC)CC)c(I)c1 12.4

Output measured PT for this item: O=NN(CCCl)C(=O)NC1CCCCC1 11.9

Output measured PT for this item: CCc1oc2ccccc2c1C(=O)c1cc(Br)c(O)c(Br)c1 12

Output measured PT for this item: OCCOCCN1CCN(C(c2ccccc2)c2ccc(Cl)cc2)CC1 (stereo not given) [HYDROXYZINE] 15.9

Output measured PT for this item: ClC(Cl)(Cl)Cl [CARBON TETRACHLORIDE] 11.9

Output measured PT for this item: CC[C@H]1[C@@H]2C[C@H]3[C@@H]4N(C)c5ccccc5[C@]45C[C@@H]([C@@H]2[C@H]5O)N3[C@@H]1O 11.4

Output measured PT for this item: CCC1(c2ccccc2)C(=O)NC(=O)NC1=O 12

Output measured PT for this item: CN(C)C(=N)N=C(N)N 12.1

Output measured PT for this item: CC1=C(CC(=O)O)c2cc(F)ccc2/C1=C\c1ccc([S+](C)[O-])cc1 (stereo not given) 13.2
